Tested on: SR leukemia
Test: NCI tumour cell line growth inhibition, 48 h
The entries below are paired with their reported TGI.
Record the value in µM, omitting the unit from your answer.

# MOLECULE, TGI (µM)
rows = [
    ("C=C1C(=O)O[C@H]2[C@H]1CC/C(COC(=O)c1cn(C)c3ccccc13)=C\\CC[C@@]1(C)O[C@@H]21", 1.17),
]

Reported TGI for O=C1C=CC(=O)C2C1Cc1ccccc1C2c1ccccc1 (stereo not given) : what is it?
59.1

###

Tested on: HCT-15 colon
Assay: NCI tumour cell line growth inhibition, 48 h; in the data active means GI50 below about 0.43 µM; inactive means the rest
One label from this list, please: true (active), false (inactive)

Some entries whose results are on file:
# MOLECULE, LABEL
measured = [
    ("O=C1NCN(c2ccccc2)C12CCN(CCCC(c1ccc(F)cc1)c1ccc(F)cc1)CC2", "false"),
    ("COc1ccc(-c2nsc3c2NC(=O)CC3c2ccc3c(c2)OCCO3)cc1 (stereo unspecified)", "false"),
]

Next molecule, please.
Per the records of this test, what outcome belongs to "O=c1cc(-c2ccccc2)oc2ccc(OC/C(=N/O)c3ccc(F)cc3)cc12" ?
false
